test: Half life in Wistar Han rat at 1 mg/kg, po administered via gavage or 1 mg/kg, iv administered as infusion for 1 hr by RP LC-MS/MS analysis; format: ADME, organism-based; settings: in vivo

{"entry.smiles": "COc1ncc(N2CCOCC2)cc1S(=O)(=O)Nc1ccnc(-c2ccc(CN3CCN(C(C)C)CC3)cc2F)c1", "half-life / h": 2.6}

###

experiment: Fraction unbound in human blood; type: ADME, tissue-based
observation.type: fraction unbound

{"entry.smiles": "COc1ncc(N2CCOCC2)cc1S(=O)(=O)Nc1ccnc(-c2ccc(CN3CCN(C(C)C)CC3)cc2F)c1", "observation.type": "fraction unbound", "value": 0.132}

###

molecular target: PI3K p110 beta/p85 alpha (Homo sapiens, UniProt P42338); test: Inhibition of recombinant human N-terminal His6-tagged full length P110beta/full length untagged human p85alpha expressed in baculovirus infected Sf21 insect cells using PIP2 as substrate preincubated for 15 mins followed by substrate addition and measured after 60 mins by HTRF assay
Sequence (P27986 whole entry): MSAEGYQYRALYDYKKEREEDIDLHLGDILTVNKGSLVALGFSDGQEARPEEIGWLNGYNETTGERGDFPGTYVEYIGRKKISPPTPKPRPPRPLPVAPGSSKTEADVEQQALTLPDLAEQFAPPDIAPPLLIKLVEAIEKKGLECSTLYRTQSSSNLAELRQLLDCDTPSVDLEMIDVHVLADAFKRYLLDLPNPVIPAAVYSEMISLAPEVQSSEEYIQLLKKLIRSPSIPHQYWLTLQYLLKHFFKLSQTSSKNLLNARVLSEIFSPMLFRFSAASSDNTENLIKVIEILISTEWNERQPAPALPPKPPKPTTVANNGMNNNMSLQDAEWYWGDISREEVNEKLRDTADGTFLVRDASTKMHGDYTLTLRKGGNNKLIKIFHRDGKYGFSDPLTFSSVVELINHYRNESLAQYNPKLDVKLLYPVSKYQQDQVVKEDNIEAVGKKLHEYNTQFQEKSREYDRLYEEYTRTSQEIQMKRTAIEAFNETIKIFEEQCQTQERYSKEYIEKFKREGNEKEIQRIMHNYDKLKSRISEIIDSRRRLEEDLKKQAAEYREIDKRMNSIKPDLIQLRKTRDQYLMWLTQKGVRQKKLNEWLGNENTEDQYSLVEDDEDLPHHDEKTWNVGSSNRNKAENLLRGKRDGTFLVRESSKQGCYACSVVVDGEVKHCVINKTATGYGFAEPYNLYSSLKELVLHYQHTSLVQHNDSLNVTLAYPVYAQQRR
Sequence (P42338 whole entry): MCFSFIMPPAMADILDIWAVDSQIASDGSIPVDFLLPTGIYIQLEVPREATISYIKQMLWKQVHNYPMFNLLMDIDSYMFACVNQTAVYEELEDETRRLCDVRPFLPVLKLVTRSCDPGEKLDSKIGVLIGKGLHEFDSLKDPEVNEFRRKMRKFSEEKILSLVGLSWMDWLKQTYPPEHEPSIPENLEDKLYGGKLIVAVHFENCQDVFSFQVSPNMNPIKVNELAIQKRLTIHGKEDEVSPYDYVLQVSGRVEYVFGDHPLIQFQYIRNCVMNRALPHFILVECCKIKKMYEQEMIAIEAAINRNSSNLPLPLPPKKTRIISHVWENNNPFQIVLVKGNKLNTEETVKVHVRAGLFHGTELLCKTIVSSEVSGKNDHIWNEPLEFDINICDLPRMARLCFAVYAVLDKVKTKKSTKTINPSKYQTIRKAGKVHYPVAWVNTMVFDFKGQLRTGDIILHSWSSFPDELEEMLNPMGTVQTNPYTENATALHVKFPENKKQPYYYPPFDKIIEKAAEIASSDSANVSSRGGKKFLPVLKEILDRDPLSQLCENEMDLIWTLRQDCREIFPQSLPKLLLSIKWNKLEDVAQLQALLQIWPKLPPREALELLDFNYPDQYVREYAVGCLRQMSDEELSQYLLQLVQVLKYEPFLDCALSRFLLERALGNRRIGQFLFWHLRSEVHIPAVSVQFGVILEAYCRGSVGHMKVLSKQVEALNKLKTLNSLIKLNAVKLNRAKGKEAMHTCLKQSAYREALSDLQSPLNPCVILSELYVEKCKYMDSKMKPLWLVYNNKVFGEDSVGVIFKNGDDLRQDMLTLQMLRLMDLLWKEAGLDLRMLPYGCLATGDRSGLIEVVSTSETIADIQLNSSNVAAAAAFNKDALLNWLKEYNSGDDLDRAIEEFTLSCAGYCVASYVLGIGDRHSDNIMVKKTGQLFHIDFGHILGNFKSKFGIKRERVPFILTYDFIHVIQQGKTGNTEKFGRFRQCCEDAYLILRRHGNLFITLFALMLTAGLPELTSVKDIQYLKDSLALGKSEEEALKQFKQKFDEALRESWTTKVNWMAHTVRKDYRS
pIC50: −log10 of the molar value.
pIC50 vs 6: at or above is y, below is n.

{"entry.smiles": "COc1ncc(N2CCOCC2)cc1S(=O)(=O)Nc1cncc(-c2ccc(CN3CCCC3)c(F)c2)c1", "study.target": "PI3K p110 beta/p85 alpha (Homo sapiens, UniProt P42338)", "label.value": "n"}
{"entry.smiles": "COc1ncc(N2CCOCC2)cc1S(=O)(=O)Nc1ccnc(-c2ccc(CN3CCN(C(C)(C)C)CC3)cc2)c1", "study.target": "PI3K p110 beta/p85 alpha (Homo sapiens, UniProt P42338)", "label.value": "n"}
{"entry.smiles": "COc1ncc(C2=CCOCC2)cc1S(=O)(=O)Nc1ccccc1", "study.target": "PI3K p110 beta/p85 alpha (Homo sapiens, UniProt P42338)", "label.value": "n"}
{"entry.smiles": "COc1ncc(N2CCOCC2)cc1S(=O)(=O)Nc1cncc(-c2ccc(CN3CCCC3)cc2)c1", "study.target": "PI3K p110 beta/p85 alpha (Homo sapiens, UniProt P42338)", "label.value": "n"}
{"entry.smiles": "COc1ncc(N2CCOCC2)cc1S(=O)(=O)Nc1ccnc(-c2ccc(CN3CCN(C(C)C)CC3)cc2)c1", "study.target": "PI3K p110 beta/p85 alpha (Homo sapiens, UniProt P42338)", "label.value": "n"}
{"entry.smiles": "COc1ncc(C2=CCOCC2)cc1S(=O)(=O)Nc1cncc(C)c1", "study.target": "PI3K p110 beta/p85 alpha (Homo sapiens, UniProt P42338)", "label.value": "y"}
{"entry.smiles": "COc1ncc(C2=CCOCC2)cc1S(=O)(=O)Nc1ccnc(C)c1", "study.target": "PI3K p110 beta/p85 alpha (Homo sapiens, UniProt P42338)", "label.value": "y"}

###

assay: Lipophilicity, log D of compound by chromatographic method; format: physicochemical
This section presents molecules with their documented chromatographic logD values.

{"entry.smiles": "COc1ncc(N2CCOCC2)cc1S(=O)(=O)Nc1ccnc(-c2ccc(CN3CCN(C(C)(C)C)CC3)cc2F)c1", "chromatographic logD": 1.9}
{"entry.smiles": "COc1ncc(N2CCOCC2)cc1S(=O)(=O)Nc1cncc(-c2ccc(CN3CCCC3)cc2)c1", "chromatographic logD": 1.9}
{"entry.smiles": "COc1ncc(C2=CCOCC2)cc1S(=O)(=O)Nc1cncc(-c2ccc(CN(C)C)cc2)c1", "chromatographic logD": 2}
{"entry.smiles": "COc1ncc(C2=CCOCC2)cc1S(=O)(=O)Nc1cncc(-c2ccc(CN3CCN(C(C)C)CC3)nc2)c1", "chromatographic logD": 1.8}
{"entry.smiles": "COc1ncc(N2CCOCC2)cc1S(=O)(=O)Nc1cncc(C#CCN2CCN(C(C)C)CC2)c1", "chromatographic logD": 1.6}
{"entry.smiles": "COc1ncc(C2=CCOCC2)cc1S(=O)(=O)Nc1cncc(-c2ccc(CN3CCCC3)cc2)c1", "chromatographic logD": 2.2}
{"entry.smiles": "COc1ncc(C2=CCOCC2)cc1S(=O)(=O)Nc1cncc(-c2ccc(CN3C[C@@H](C)O[C@@H](C)C3)cc2)c1", "chromatographic logD": 5.3}
{"entry.smiles": "COc1ncc(N2CCOCC2)cc1S(=O)(=O)Nc1ccnc(-c2ccc(CN3CCN(C(C)C)CC3)cc2F)c1", "chromatographic logD": 1.9}
